Below is a list of entries, each paired with its recorded inhibition value.
Molecular target: Cholinesterase (Equus caballus)
Conditions: at 2 mg/mL
Description: Inhibition of horse BChE at 2 mg/ml by Ellman's method
Please respond with the number in % and leave the unit unwritten.

compound=OCc1c[nH]c2ccccc12 measuredmetric=inhibition readingunit=% readoutnumber=9.11
compound=COc1ccc(-c2coc3cc(O)cc(O)c3c2=O)cc1 measuredmetric=inhibition readingunit=% readoutnumber=-9.1
compound=C[C@H]1C(=O)CC[C@@H]2[C@]1(C)CC[C@H]1[C@@]2(C)CC[C@@]2(C)[C@@H]3CC(C)(C)CC[C@]3(C)CC[C@]12C measuredmetric=inhibition readingunit=% readoutnumber=-0.57
compound=COc1cc2c(c(OC)c1OC)-c1c(cc3c(c1O)OCO3)C[C@H](C)[C@](C)(O)[C@H]2OC(=O)c1ccccc1 measuredmetric=inhibition readingunit=% readoutnumber=-0.32
compound=COc1c(C)c2c(c(O)c1C/C=C(\C)CCC(=O)O)C(=O)OC2 measuredmetric=inhibition readingunit=% readoutnumber=-7.04

What measured inhibition goes with O=c1cc(-c2ccc(O)cc2)oc2cc(OC3O[C@H](CO)[C@@H](O)[C@H](O)[C@H]3O)cc(O)c12 (stereo partly drawn) ?
5

What measured inhibition goes with COC1=C[C@@H](C)[C@@H]2C[C@H]3OC(=O)C[C@H]4C(C)=C(OC)C(=O)[C@H]([C@@]2(C)C1=O)[C@@]34C ?
4.69

What measured inhibition goes with C=C[C@@](C)(/C=C/c1ccc(O)cc1)CCC=C(C)C ?
13.4

What measured inhibition goes with CN1CCc2cc3c(c4c2[C@H]1Cc1ccccc1-4)OCO3 ?
25.9

What measured inhibition goes with CO[C@H]1C=C2CCN(C)[C@H]2[C@@H]2c3cc4c(cc3C(=O)O[C@@H]21)OCO4 ?
-2.26

What measured inhibition goes with C[C@H]1CC[C@@H]2N(C1)C[C@H]1[C@@H]3C[C@H]4[C@@H](CC(=O)[C@H]5C[C@@H](O)CC[C@@]54C)[C@@H]3CC[C@H]1[C@]2(C)O ?
6.5

What measured inhibition goes with COc1cc(CCC(C)=O)ccc1O ?
10.8

What measured inhibition goes with Cc1cc(O)c2c(=O)c3c(O)cc(O)c4c5c(O)cc(O)c6c(=O)c7c(O)cc(C)c8c1c2c(c34)c(c78)c65 ?
14.3

What measured inhibition goes with COc1ccc(/C=C/C(=O)c2c(O)cc(OC)cc2OC)cc1 ?
-9.95

What measured inhibition goes with COc1ccc2cc1Oc1ccc(cc1)C[C@H]1c3cc(c(OC)cc3CCN1C)Oc1c(OC)c(OC)cc3c1[C@H](C2)N(C)CC3 ?
-1.1

What measured inhibition goes with Cc1cc(O)c2c(c1)C(=O)c1cc(O)cc(O)c1C2=O ?
1.03

What measured inhibition goes with C[C@H]([C@H](O)CCC(C)(C)O)[C@H]1CC[C@@]2(O)C3=CC(=O)[C@@H]4C[C@@H](O)[C@@H](O)C[C@]4(C)[C@H]3CC[C@]12C ?
-1.9

What measured inhibition goes with CN1CCc2cc(O)c(O)cc2C1Cc1ccc(O)c(O)c1 (stereo not drawn) ?
24.1

----------
Molecular target: Cholinesterase (Equus caballus) (UniProt P81908)
Sequence (P81908 whole entry): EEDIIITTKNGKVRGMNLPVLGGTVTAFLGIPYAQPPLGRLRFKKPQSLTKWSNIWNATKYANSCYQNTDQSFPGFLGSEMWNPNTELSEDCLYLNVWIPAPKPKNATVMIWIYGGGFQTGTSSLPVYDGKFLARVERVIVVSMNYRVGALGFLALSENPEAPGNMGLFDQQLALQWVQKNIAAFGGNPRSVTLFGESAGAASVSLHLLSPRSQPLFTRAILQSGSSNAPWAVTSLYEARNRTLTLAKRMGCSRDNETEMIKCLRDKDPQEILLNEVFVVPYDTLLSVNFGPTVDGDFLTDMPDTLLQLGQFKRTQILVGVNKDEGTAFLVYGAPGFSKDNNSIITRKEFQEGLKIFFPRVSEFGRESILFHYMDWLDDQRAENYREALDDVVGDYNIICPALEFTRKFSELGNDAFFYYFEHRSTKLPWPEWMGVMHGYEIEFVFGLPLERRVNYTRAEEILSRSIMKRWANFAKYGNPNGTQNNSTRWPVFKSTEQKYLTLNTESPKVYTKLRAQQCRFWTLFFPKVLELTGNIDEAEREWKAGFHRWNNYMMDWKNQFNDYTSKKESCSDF
Settings: at 2 mg/mL
Starred links: 1 amine or outer side, 2 acyl side, 3 side chain; linkers in the order of their positions; H or OH if unused. Positions of bridges follow the written chain, without caps; N, C: chain ends. Non-standard residues stand in square brackets, D forms with d. Residues, ends and D or L forms follow the SMILES beside them. Chains are numbered I, II in the order given. Actinocin(9to1) = Cc1c2oc3c(C)ccc(C(=O)[*:1])c3nc-2c(C(=O)[*:2])c(N)c1=O; NMeV = CN[C@H](C(=O)O)C(C)C; Sar = CNCC(=O)O
Below is a list of entries, each paired with its recorded inhibition value.
Please respond with the number in % and leave the unit unwritten.

Worked cases, inhibition given:
molecule=COc1ccc(-c2cc(=O)c3c(O)cc(O)cc3o2)cc1 testedsystem="Cholinesterase (Equus caballus) (UniProt P81908)" readoutnumber=-2.17
molecule="Cc1c2oc3c(C)ccc(C(=O)N[C@@H]4C(=O)N[C@H](C(C)C)C(=O)N5CCC[C@H]5C(=O)N(C)CC(=O)N(C)[C@@H](C(C)C)C(=O)O[C@@H]4C)c3nc-2c(C(=O)N[C@@H]2C(=O)N[C@H](C(C)C)C(=O)N3CCC[C@H]3C(=O)N(C)CC(=O)N(C)[C@@H](C(C)C)C(=O)O[C@@H]2C)c(N)c1=O (I: T[dV]P[Sar][NMeV] / II: T[dV]P[Sar][NMeV]; ester I:1-I:C, II:1-II:C; linker I:N-II:N via Actinocin(9to1))" testedsystem="Cholinesterase (Equus caballus) (UniProt P81908)" readoutnumber=3.31
molecule=CC(=O)N[C@H]1[C@@H](O[C@@H]2O[C@H](C[C@@H](O)[C@@H]3O[C@H](n4ccc(=O)[nH]c4=O)[C@@H](O)[C@H]3O)[C@H](O)[C@H](O)[C@H]2NC(=O)/C=C/CCCCCCCCCCC(C)C)O[C@H](CO)[C@@H](O)[C@@H]1O testedsystem="Cholinesterase (Equus caballus) (UniProt P81908)" readoutnumber=1.57
molecule=C1CCN2C[C@@H]3C[C@@H](CN4CCCC[C@@H]34)[C@H]2C1 testedsystem="Cholinesterase (Equus caballus) (UniProt P81908)" readoutnumber=5.31

What measured inhibition goes with C=C[C@@](C)(O)CC[C@H]1C(=C)CC[C@H]2C(C)(C)CCC[C@]12C ?
0.47

Data origin, for the record: ChEMBL document CHEMBL2163249
